measurement-notes: RPL19A-GFP modulators, yeast TOR pathway, confirmation, cell-based, S. cerevisiae, flow cytometry, cherry picks, mother/daughter gates (AID 2270)
condition-parameters: S. cerevisiae RPL19A-GFP strain, 3 h, measured here: mother cell gate, at 10 µM, stronger effect = lower value, 100 = same GFP as DMSO wells
endpoint: GFP response vs DMSO (%)
// units = %; emit number, no label

CC[n+]1cc(C)ccc1/C=C/c1ccc(N(C)C)cc1 = 103

Which measured GFP response vs DMSO value corresponds to Cc1ccc(C)c(-c2nnc(NC(=O)c3ccc([N+](=O)[O-])o3)o2)c1 ?
101

Which measured GFP response vs DMSO value corresponds to Cc1[nH]n(-c2ccccc2)c(=O)c1/C=N/Nc1nncc(-c2ccccc2)n1 ?
88.9

Which measured GFP response vs DMSO value corresponds to O=C(COc1ccccc1)NNC(=S)NC(=O)c1ccccc1 ?
110

Data credit: PubChem BioAssay
